In this section, each of the compounds is paired with its reported pIC50.
- Tested on: primary human fibroblast cells (PHF)
- testDescription: CellTiter-Blue cell viability, PHF
- Type: cell-based
- particulars: non-cancerous, 72 hours
When answering, recall that pIC50 equals minus log10 of the concentration in mol/L, and write that number alone.

Previously resolved entries follow.
| compound | pIC50 |
| --- | --- |
| O=S(=O)(c1c(F)c(F)c(F)c(F)c1F)N(Cc1ccc(C(F)(F)F)cc1)C1CC1 [Compound I-25] | 5.52 |
| O=S(=O)(c1c(F)c(F)c(F)c(F)c1F)N(Cc1ccc(F)cc1)CC1CC1 [Compound I-2] | 5.54 |
| N#Cc1ccc(CN(C2CC2)S(=O)(=O)c2c(F)c(F)c(F)c(F)c2F)cc1 [Compound I-23] | 5.26 |
| CC(C)(C)C(=O)N(Cc1ccc(F)cc1)S(=O)(=O)c1c(F)c(F)c(F)c(F)c1F [Compound I-54] | 5.52 |

input: Fill blank: measured pIC50 of the compound CC(C)N(Cc1ccccc1F)S(=O)(=O)c1c(F)c(F)c(F)c(F)c1F [Compound I-48] is ____.
output: 5.52

input: Try the compound CC(C)N(Cc1ccc(F)cc1)S(=O)(=O)c1c(F)c(F)c(F)c(F)c1F [Compound I-16]
output: 5.14

input: Same thing, different compound: O=C(O)c1ccc(CN(C2CC2)S(=O)(=O)c2c(F)c(F)c(F)c(F)c2F)cc1 [Compound I-26]
output: 5.19

input: Now the same for O=S(=O)(c1c(F)c(F)c(F)c(F)c1F)N(Cc1c(F)cc(F)cc1F)C1CC1 [Compound I-36]
output: 5.09

input: Okay, and O=S(=O)(c1c(F)c(F)c(F)c(F)c1F)N(Cc1ccc(F)cc1)C1CCC1 [Compound I-55] ?
output: 5.60

input: Item: O=S(=O)(c1c(F)c(F)c(F)c(F)c1F)N(Cc1ccc(Cl)cc1)C1CC1 [Compound I-7]
output: 5.57

input: Do the same for O=S(=O)(c1c(F)c(F)c(F)c(F)c1F)N(Cc1ncc(F)cc1F)C1CC1 [Compound I-37] please
output: 5.06

input: Continue with O=S(=O)(c1c(F)c(F)c(F)c(F)c1F)N(Cc1ccc(F)cn1)C1CC1 [Compound I-13]
output: 5.26

input: What do we get for O=S(=O)(c1c(F)c(F)c(F)c(F)c1F)N(Cc1ccc(F)nc1)C1CC1 [Compound I-12] ?
output: 5.30

These measurements were taken from patent US20200277268A1.
